Biological target: T1, ECF22_1147
T1 chain: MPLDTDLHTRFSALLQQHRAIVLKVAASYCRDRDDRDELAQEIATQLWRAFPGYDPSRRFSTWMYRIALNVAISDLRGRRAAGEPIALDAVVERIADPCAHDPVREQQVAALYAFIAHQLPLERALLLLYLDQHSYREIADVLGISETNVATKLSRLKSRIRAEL
Metric name: fold repression
Respond numerically, and do not add a unit to the figure.

Binder	Result
AS01_3473 (protein) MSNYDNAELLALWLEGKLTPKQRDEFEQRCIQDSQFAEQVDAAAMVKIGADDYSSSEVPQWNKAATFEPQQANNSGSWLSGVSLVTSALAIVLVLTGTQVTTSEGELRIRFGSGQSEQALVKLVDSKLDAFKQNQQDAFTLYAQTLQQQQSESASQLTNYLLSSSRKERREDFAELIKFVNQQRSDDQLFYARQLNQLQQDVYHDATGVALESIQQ	3.4
AS03_1244 (protein) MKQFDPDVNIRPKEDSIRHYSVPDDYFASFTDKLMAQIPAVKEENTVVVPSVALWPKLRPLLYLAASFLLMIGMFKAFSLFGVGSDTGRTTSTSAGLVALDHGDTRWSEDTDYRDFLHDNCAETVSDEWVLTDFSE	2.3
AS20_992 (protein) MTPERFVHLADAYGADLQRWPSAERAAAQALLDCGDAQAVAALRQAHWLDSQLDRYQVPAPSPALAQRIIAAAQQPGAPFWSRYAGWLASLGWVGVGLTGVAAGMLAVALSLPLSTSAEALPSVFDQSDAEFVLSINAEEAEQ	2.47

input: // returns reported fold repression for input AS30_35 (protein) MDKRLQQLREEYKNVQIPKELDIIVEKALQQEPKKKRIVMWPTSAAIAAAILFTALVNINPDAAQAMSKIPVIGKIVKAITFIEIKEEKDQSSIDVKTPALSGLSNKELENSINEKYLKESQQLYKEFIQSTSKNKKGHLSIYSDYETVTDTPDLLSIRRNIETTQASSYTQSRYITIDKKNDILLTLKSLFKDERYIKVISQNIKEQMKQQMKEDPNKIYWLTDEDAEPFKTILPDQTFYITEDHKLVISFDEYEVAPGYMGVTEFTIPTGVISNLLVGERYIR
output: 2.12

input: // returns reported fold repression for input AS02_915 (protein) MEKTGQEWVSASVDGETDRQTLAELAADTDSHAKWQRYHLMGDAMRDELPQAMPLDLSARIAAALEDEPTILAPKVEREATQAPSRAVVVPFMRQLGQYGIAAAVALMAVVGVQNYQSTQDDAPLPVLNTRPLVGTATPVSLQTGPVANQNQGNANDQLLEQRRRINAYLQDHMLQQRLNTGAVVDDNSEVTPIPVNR
output: 4.49

input: // returns reported fold repression for input AS03_1198 (protein) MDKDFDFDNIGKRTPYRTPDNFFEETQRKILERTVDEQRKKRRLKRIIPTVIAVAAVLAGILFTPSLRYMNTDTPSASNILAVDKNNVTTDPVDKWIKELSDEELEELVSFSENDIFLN
output: 1.28
